- tested-system: T1, CD3 epsilon homodimer protein (UniProt P07766 23-126)
- T1 construct: also called CD3 (CD3 epsilon)
- T1 sequence (P07766 23-126): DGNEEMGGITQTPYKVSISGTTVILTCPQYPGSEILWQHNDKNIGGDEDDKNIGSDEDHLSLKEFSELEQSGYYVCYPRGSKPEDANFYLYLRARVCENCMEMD
- assay-method-text: SPR Biacore T200, CD3e homodimer on chip, vs unaltered GLS3000 antibody
experimental-endpoint: ratio of amounts bound (Z=Y/X)
Answers are plain numbers.

>>> numeric_value("GLS3000 F55M (antibody, name in Kabat numbering, V domains shown, one-arm IgG as m2) VH: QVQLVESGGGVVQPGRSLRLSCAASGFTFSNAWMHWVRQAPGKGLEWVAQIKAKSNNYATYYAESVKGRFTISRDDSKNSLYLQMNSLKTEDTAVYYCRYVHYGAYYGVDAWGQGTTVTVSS VL: DIVMTQSPLSLPVTPGEPASISCRSSQSLVHSNRNTYLHWYQQKPGQAPRLLIYKVSNRMSGVPDRFSGSGSGTDFTLKISRVEAEDVGVYYCGQGTQVPYTFGQGTKLEIK")
0.8

Report ratio of amounts bound (Z=Y/X) for every entry below.
1. GLS3000 N53R (antibody, name in Kabat numbering, V domains shown, one-arm IgG as m2) VH: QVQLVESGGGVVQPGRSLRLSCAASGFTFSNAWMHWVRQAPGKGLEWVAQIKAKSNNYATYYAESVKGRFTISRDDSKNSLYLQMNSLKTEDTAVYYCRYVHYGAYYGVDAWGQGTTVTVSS VL: DIVMTQSPLSLPVTPGEPASISCRSSQSLVHSNRNTYLHWYQQKPGQAPRLLIYKVSRRFSGVPDRFSGSGSGTDFTLKISRVEAEDVGVYYCGQGTQVPYTFGQGTKLEIK
2. GLS3000 N53F (antibody, name in Kabat numbering, V domains shown, one-arm IgG as m2) VH: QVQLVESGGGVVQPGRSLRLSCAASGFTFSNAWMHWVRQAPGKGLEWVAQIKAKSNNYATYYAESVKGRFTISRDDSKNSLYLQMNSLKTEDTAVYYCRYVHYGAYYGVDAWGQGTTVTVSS VL: DIVMTQSPLSLPVTPGEPASISCRSSQSLVHSNRNTYLHWYQQKPGQAPRLLIYKVSFRFSGVPDRFSGSGSGTDFTLKISRVEAEDVGVYYCGQGTQVPYTFGQGTKLEIK
3. GLS3000 G89I (antibody, name in Kabat numbering, V domains shown, one-arm IgG as m2) VH: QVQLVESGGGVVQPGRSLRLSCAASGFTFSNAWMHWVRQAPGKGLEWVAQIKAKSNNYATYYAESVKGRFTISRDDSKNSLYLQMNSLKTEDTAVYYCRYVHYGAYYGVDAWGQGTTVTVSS VL: DIVMTQSPLSLPVTPGEPASISCRSSQSLVHSNRNTYLHWYQQKPGQAPRLLIYKVSNRFSGVPDRFSGSGSGTDFTLKISRVEAEDVGVYYCIQGTQVPYTFGQGTKLEIK
4. GLS3000 N28Y (antibody, name in Kabat numbering, V domains shown, one-arm IgG as m2) VH: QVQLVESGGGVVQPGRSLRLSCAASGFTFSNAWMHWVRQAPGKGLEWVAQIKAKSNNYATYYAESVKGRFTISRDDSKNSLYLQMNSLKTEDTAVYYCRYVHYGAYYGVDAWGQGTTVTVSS VL: DIVMTQSPLSLPVTPGEPASISCRSSQSLVHSYRNTYLHWYQQKPGQAPRLLIYKVSNRFSGVPDRFSGSGSGTDFTLKISRVEAEDVGVYYCGQGTQVPYTFGQGTKLEIK
5. GLS3000 R24P (antibody, name in Kabat numbering, V domains shown, one-arm IgG as m2) VH: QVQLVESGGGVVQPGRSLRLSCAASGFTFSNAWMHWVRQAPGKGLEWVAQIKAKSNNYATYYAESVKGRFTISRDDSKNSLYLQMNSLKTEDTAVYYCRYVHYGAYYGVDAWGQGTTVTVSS VL: DIVMTQSPLSLPVTPGEPASISCPSSQSLVHSNRNTYLHWYQQKPGQAPRLLIYKVSNRFSGVPDRFSGSGSGTDFTLKISRVEAEDVGVYYCGQGTQVPYTFGQGTKLEIK

Response:
1. 1.58
2. 0.69
3. 1.07
4. 0.26
5. 0.7

Provide ratio of amounts bound (Z=Y/X) for all items below, preserving their order.
1. GLS3000 T31N (antibody, name in Kabat numbering, V domains shown, one-arm IgG as m2) VH: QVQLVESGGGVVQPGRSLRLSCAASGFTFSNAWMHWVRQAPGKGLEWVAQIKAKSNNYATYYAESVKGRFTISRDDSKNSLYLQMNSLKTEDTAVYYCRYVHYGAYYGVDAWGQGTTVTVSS VL: DIVMTQSPLSLPVTPGEPASISCRSSQSLVHSNRNNYLHWYQQKPGQAPRLLIYKVSNRFSGVPDRFSGSGSGTDFTLKISRVEAEDVGVYYCGQGTQVPYTFGQGTKLEIK
2. GLS3000 H27dW (antibody, name in Kabat numbering, V domains shown, one-arm IgG as m2) VH: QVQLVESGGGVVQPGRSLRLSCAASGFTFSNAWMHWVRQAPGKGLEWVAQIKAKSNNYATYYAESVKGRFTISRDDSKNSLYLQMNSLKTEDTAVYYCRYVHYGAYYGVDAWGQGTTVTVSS VL: DIVMTQSPLSLPVTPGEPASISCRSSQSLVWSNRNTYLHWYQQKPGQAPRLLIYKVSNRFSGVPDRFSGSGSGTDFTLKISRVEAEDVGVYYCGQGTQVPYTFGQGTKLEIK
3. GLS3000 N53H (antibody, name in Kabat numbering, V domains shown, one-arm IgG as m2) VH: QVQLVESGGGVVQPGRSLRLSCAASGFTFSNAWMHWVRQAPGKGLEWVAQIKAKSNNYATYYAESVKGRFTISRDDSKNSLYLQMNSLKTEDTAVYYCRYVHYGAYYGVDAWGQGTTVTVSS VL: DIVMTQSPLSLPVTPGEPASISCRSSQSLVHSNRNTYLHWYQQKPGQAPRLLIYKVSHRFSGVPDRFSGSGSGTDFTLKISRVEAEDVGVYYCGQGTQVPYTFGQGTKLEIK
4. GLS3000 S56G (antibody, name in Kabat numbering, V domains shown, one-arm IgG as m2) VH: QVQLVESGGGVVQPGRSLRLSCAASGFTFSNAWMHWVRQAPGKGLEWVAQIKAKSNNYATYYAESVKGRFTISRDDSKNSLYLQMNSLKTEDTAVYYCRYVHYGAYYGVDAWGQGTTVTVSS VL: DIVMTQSPLSLPVTPGEPASISCRSSQSLVHSNRNTYLHWYQQKPGQAPRLLIYKVSNRFGGVPDRFSGSGSGTDFTLKISRVEAEDVGVYYCGQGTQVPYTFGQGTKLEIK

Response:
0.32
0.39
1.18
0.92
